Target: recombinant human TYRO3 (Homo sapiens (Human))
Sequence (Q06418 41-890): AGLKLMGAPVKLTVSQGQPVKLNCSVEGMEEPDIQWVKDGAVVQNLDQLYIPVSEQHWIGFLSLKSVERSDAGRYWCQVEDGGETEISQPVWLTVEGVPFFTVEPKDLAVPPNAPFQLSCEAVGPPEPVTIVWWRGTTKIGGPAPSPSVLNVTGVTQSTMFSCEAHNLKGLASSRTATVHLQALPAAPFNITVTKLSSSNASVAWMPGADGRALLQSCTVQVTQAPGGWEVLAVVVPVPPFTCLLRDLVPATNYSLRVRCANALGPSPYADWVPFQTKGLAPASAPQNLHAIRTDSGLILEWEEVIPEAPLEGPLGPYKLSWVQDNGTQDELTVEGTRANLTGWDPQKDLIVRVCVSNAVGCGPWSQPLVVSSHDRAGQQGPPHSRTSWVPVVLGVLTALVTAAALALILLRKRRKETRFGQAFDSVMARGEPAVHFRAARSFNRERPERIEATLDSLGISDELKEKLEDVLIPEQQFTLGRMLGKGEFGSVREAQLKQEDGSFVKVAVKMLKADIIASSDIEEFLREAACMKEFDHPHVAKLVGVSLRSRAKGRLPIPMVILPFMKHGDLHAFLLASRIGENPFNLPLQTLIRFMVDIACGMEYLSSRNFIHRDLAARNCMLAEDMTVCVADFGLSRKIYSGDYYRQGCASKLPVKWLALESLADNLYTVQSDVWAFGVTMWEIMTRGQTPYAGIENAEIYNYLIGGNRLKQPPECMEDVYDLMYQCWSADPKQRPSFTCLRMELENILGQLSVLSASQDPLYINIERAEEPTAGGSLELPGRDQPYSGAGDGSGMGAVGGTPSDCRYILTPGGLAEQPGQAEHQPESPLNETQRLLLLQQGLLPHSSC
Assay: TYRO3 enzymatic assay (radiometric [32P]-ATP, Poly(Glu,Tyr) substrate)
Settings: recombinant human TYRO3, [32P]-ATP
Collected IC50 values appear next to each entry.

Would you please look over these solved cases?
• COc1ccc(-c2c[nH]c3ncc(-c4ccc(CN5CCC(O)C5)cc4)cc23)cn1 (centres unmarked) [compound 29] = 51 to 150 nM
• COc1ccc(-c2c[nH]c3ncc(-c4ccc(CN5CCC(OC)CC5)cc4)cc23)cn1 [compound 34] = 51 to 150 nM
• OC1CCCN(Cc2ccc(-c3cnc4[nH]cc(-c5ccc(F)nc5)c4c3)cc2)C1 (centres unmarked) [compound 21] = 51 to 150 nM

Given CNC1CCN(Cc2ccc(-c3cnc4[nH]cc(-c5ccc(OC)nc5)c4c3)cc2)CC1 [compound 73] , state its recorded IC50. 151 to 500 nM

Field request: IC50 | item: CCOC1CN(Cc2ccc(-c3cnc4[nH]cc(-c5ccc(OC)nc5)c4c3)cc2)C1 [compound 36] 151 to 500 nM
